# Tested on: M14 melanoma
# ASSAY_METHOD_TEXT: NCI tumour cell line growth inhibition, 48 h
ASSAY_READOUT: TGI

## Task If you can, please state the reported TGI value of `CCCCCCCCCCCCNC(=S)OC` .
## Result 32.1 µM

## Task Which TGI reading was recorded for the compound `COc1cccc(-c2cc(=O)c3cc(N4CCCCC4)ccc3[nH]2)c1` ?
## Result > 100 µM

## Task Looking for the measured TGI of `CN1CCN(C(=O)COc2ccc(C34CC5CC(CC(C5)C3)C4)cc2)CC1` , can you help?
## Result 30.7 µM

## Task // lookup TGI for `Oc1ccc(NCn2c(=S)sc3ccccc32)cc1`
## Result > 100 µM

## Task Sample `CCCCCCOc1ccc(/C=N/Nc2cc(C)nc3ccc(Cl)cc23)cc1` — what was its TGI?
## Result 3.36 µM

## Task Param item = `O=c1[nH]c(=O)c2c3n(cc2[nH]1)CCCCC3` ; retrieve measured TGI.
## Result > 100 µM

## Task # query: TGI of entry CC(=O)OCc1ccc2c(c1)C(O)NC(=O)O2 (stereo unspecified)
## Result > 100 µM

## Task Given the entry COc1cc(S(=O)(=O)Nc2ccc(-c3csc(N4C(=O)CSC4c4cccc(Oc5ccccc5)c4)n3)cc2)ccc1Cl (stereo unspecified) , report its measured TGI.
## Result > 100 µM

## Task What does the record list as TGI for `O=C(O)Cc1ccc([N+](=O)[O-])cc1[N+](=O)[O-]` ?
## Result > 100 µM

## Task # input compound: CCOC(=O)C1=C(C)N(NC(=O)Nc2ccccc2)C2(N)N(NC(=O)Nc3ccccc3)C(C)=C(C(=O)OCC)C12C(=O)OCC (stereo unspecified) ; wanted: its TGI
## Result > 100 µM

## Task I am curious: what TGI value has been reported for COc1cc2c(cc1OC)-c1cc(OC)c(OC)cc1C(CN(C)C)C2 (stereo unspecified) ?
## Result > 10 µM
